# SYSTEM_UNDER_TEST: h FPR2 (Homo sapiens, UniProt P25090)
# Sequence (P25090 whole entry): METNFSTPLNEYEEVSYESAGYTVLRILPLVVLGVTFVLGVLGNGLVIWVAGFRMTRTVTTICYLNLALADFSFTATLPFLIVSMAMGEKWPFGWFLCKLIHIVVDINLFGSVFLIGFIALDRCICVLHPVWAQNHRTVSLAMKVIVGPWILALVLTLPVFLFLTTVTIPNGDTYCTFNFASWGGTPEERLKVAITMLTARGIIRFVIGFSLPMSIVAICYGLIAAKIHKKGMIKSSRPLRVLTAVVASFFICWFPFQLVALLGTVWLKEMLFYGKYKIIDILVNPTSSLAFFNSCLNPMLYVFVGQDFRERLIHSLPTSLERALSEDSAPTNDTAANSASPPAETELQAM
# EXPERIMENTAL_PROTOCOL: Agonistic activity in hFPR2-Aq-CHO cells (FLIPR Calcium 5 fluorescence assay)
# CONDITIONS: 11 point half log dilution, final assay concentration from 10µM
REPORTED_ENDPOINT: EC50 (nM)
Numbers only, in nM.

Below, 2 compounds whose answers are already recorded.
>>> data_value("O=C(Nc1ccc(Cl)cc1)NC1CC(=O)N(c2ccc(F)cc2)CC1c1ccc(Cl)cn1 (single isomer, unassigned) [Ex-15]")
7
>>> data_value("COc1ccc([C@H]2CN(c3ccc(F)cc3)C(=O)C[C@H]2NC(=O)Nc2ccc(Cl)cc2)cn1 (relative stereo) [Ex-6]")
6

For the next question, use this compound.
Indicate its recorded EC50; the compound in question is COc1ccc([C@@H]2CN(Cc3ccn(C)n3)CC[C@H]2NC(=O)Nc2ccc(Cl)cc2)nc1 (single isomer, unassigned) [Ex-39]
0.3
